molecular target: 14-3-3/ABL1 complex (Homo sapiens, UniProt P00519+P31947); test: STD NMR dose response
Sequence (P31947 whole entry, other chains not shown): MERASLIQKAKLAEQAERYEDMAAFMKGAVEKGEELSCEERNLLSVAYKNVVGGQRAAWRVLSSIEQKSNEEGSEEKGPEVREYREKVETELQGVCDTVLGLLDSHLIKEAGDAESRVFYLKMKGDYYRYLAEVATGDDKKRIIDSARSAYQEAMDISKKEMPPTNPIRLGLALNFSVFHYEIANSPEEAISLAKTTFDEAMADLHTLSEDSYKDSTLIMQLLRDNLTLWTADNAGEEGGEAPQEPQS
pEC50: −log10 of the molar value.
metric: pEC50

INSERT INTO measurements (compound_smiles, metric, reported) VALUES
  ('COC(=O)c1cccc(C(=N)N)c1', 'pEC50', 2.06);
